# credit: patent US20170189504A1

System: HLA-A*02
test summary: MHC binding assay, UV-ligand exchange with β2m ELISA, HLA-A*02 (Table 20)
Set-up: species or system human
conditions: binding to HLA-A*02 ranged by peptide exchange yield (UV-ligand exchange, β2m ELISA)
Description: Candidate peptides for T cell based therapies according to the present invention were further tested for their MHC binding capacity (affinity). The individual peptide-MHC complexes were produced by UV-ligand exchange, where a UV-sensitive peptide is cleaved upon UV-irradiation, and exchanged with the peptide of interest as analyzed. Only peptide candidates that can effectively bind and stabilize the peptide-receptive MHC molecules prevent dissociation of the MHC complexes. […]
reported property: Peptide exchange

> print(dat)
                                  substance  reported.property  experimental.result
1  13 (ALMAMLVYV; listed as Homo sapiens) [compound 13]   Peptide exchange    ++ (20%-49% = ++)
2  233 (HLFDAFVSV; listed as Homo sapiens) [compound 233]   Peptide exchange  +++ (50%-75% = +++)
3  148 (MLAGIAITV; listed as Homo sapiens) [compound 148]   Peptide exchange  +++ (50%-75% = +++)
4  38 (FLGPRIIGL; listed as Homo sapiens) [compound 38]   Peptide exchange  +++ (50%-75% = +++)
5  73 (YTLREVDTV; listed as Homo sapiens) [compound 73]   Peptide exchange    ++ (20%-49% = ++)
6  30 (AMIEEVFEA; listed as Homo sapiens) [compound 30]   Peptide exchange    ++ (20%-49% = ++)
